test system: Escherichia coli TOP10; assay: shrunken log2 fold change of peptide-encoding DNA abundance (4.5 h post-induction vs induction); higher = less antimicrobial activity (less host growth inhibition); conditions: time post-induction: 4.5 h; library: site-saturation at positions 5, 18, 19, 20;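 further: peptides expressed intracellularly from a pBAD plasmid library in pooled LB shake-flask culture, induced with 0.3% L-arabinose, DNA abundance read by NGS, three biological replicates, DESeq2 with apeglm shrinkage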
Recorded measurements of shrunken log2 fold change, one per entry
Would you mind answering with just the numeric figure?

Look over these answered cases.
- Sequence: "RRIRQRPPRLPRPRPRPCGRPRP"
  Readout number: 0.411
- Sequence: "RRIRNRPPRLPRPRPRPLAKPRP"
  Readout number: 0.249
- Sequence: "RRIRARPPRLPRPRPRPTSWPRP"
  Readout number: 0.756
- Sequence: "RRIRQRPPRLPRPRPRPKILPRP"
  Readout number: -0.0155
- Sequence: "RRIRNRPPRLPRPRPRPAYCPRP"
  Readout number: -0.0951

Please fill in: shrunken log2 fold change reported for RRIRPRPPRLPRPRPRPNSQPRP = -0.314

Record summary for RRIRVRPPRLPRPRPRPIRFPRP : reported shrunken log2 fold change = -0.0571

Lab note: RRIRCRPPRLPRPRPRPDYGPRP gave shrunken log2 fold change of 2.76

shrunken log2 fold change in this record for RRIRPRPPRLPRPRPRPVYLPRP : -0.6

Noted for RRIRHRPPRLPRPRPRPNFNPRP : its shrunken log2 fold change reads -0.509

Value of measured shrunken log2 fold change for the entry RRIRERPPRLPRPRPRPYRWPRP : -0.0887

response.value for RRIRERPPRLPRPRPRPCNHPRP (field: shrunken log2 fold change) = -0.567

The recorded shrunken log2 fold change for entry RRIRRRPPRLPRPRPRPFIFPRP equals 0.25

The sequence listed as RRIRFRPPRLPRPRPRPWTYPRP has a reported shrunken log2 fold change of -0.0132

For record RRIRWRPPRLPRPRPRPSDTPRP the listed shrunken log2 fold change is 0.0558

RRIRGRPPRLPRPRPRPSRYPRP has a reported shrunken log2 fold change of -0.0843

Data origin: the supplement of paper PMC9112550
